# System: NCI/ADR-RES
# ASSAY_PROTOCOL: NCI tumour cell line growth inhibition, 48 h
Activity calls are given as the source filed them. No stated cut-off is given here; in the data, active = GI50 up to about 1.1 µM and inactive = higher.
Possible outcomes: active, inactive

• Cc1c(CCN2CCOCC2)c(N2CCOCC2)n2c(nc3ccccc32)c1C#N = inactive
• CC1=CC=C2c3ccccc3C=CN2C(=O)C1 = inactive
• COc1ccc2oc(C(=O)N3CC(CCl)c4ccc(N)cc43)cc2c1 (centres undefined) = active
• C#CCCOC1(OC)N=NC(C)(C)O1 (centres undefined) = inactive
• O=C(CCCCCCCCC(=O)NN1C(=O)/C(=C\c2ccc(O)c(O)c2)SC1c1ccc(Cl)cc1)NN1C(=O)/C(=C\c2ccc(O)c(O)c2)SC1c1ccc(Cl)cc1 (centres undefined) = inactive
• COc1ccc2c(c1)N=C1CSC(c3c(Cl)cccc3[N+](=O)[O-])N1C2 (centres undefined) = inactive
• COc1cc2cc(C(=O)N3CC(COS(C)(=O)=O)c4c3cc(N)c3ccccc43)[nH]c2c(OC)c1OC (centres undefined) = active
• O=C1c2cc([N+](=O)[O-])sc2C(=O)c2c([N+](=O)[O-])csc21 = inactive
• O=C1N[C@H]2[C@H](O)[C@H](O)[C@@H](O)[C@H](O)[C@@H]2c2cc3c(c(O)c21)OCO3 = active
